Source of measurements: ChEMBL document CHEMBL1139425

biological target: NAD-dependent protein deacetylase sirtuin-2 (Homo sapiens) (UniProt Q8IXJ6); assay: Inhibition of recombinant GST-tagged SIRT2 at 200 uM by Fluor de Lys fluorescence assay
READOUT KIND: inhibition

> print(dat)
                            smiles.notation                         target.under.test  readout.kind  result.value
1  CC(C)(NC(=O)/C=C/c1cccc([N+](=O)[O-])c1)C(=O)NCCc1c[nH]c2ccccc12  NAD-dependent protein deacetylase sirtuin-2 (Homo sapiens) (UniProt Q8IXJ6)    inhibition         42.1%
2  CC(C)(NC(=O)/C=C/c1ccc(F)cc1)C(=O)NCCc1c[nH]c2ccccc12  NAD-dependent protein deacetylase sirtuin-2 (Homo sapiens) (UniProt Q8IXJ6)    inhibition         61.3%
3  COc1ccc2[nH]cc(CCNC(=O)CNC(=O)/C=C/c3ccccc3)c2c1  NAD-dependent protein deacetylase sirtuin-2 (Homo sapiens) (UniProt Q8IXJ6)    inhibition         24.2%
4  CC(C)(NC(=O)CCc1ccc(O)cc1)C(=O)NCCc1c[nH]c2ccccc12  NAD-dependent protein deacetylase sirtuin-2 (Homo sapiens) (UniProt Q8IXJ6)    inhibition         19.5%
5        O=C(CCc1ccccc1)NCCc1c[nH]c2ccccc12  NAD-dependent protein deacetylase sirtuin-2 (Homo sapiens) (UniProt Q8IXJ6)    inhibition         44.1%

* * *

Measured pIC50 values are reported for all entries that follow.
Biological target: NAD-dependent protein deacetylase sirtuin-2 (Homo sapiens)
Sequence (Q8IXJ6 whole entry): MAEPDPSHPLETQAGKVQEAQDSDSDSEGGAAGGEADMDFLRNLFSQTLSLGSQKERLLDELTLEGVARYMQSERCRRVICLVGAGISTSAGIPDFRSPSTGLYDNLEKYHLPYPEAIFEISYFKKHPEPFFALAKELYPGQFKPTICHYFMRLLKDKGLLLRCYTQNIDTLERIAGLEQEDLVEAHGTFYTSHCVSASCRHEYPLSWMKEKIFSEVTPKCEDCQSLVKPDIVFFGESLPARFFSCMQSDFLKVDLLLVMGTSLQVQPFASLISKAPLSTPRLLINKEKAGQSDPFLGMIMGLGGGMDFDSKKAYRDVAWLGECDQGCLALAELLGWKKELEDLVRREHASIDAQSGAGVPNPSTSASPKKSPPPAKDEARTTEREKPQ
Experiment: Inhibition of recombinant GST-tagged SIRT2 by Fluor de Lys fluorescence assay
pIC50: −log10 of the molar value.
READOUT KIND: pIC50

> print(dat)
                            smiles.notation                         target.under.test  result.value
1     O=C(/C=C/c1ccccc1)NCCc1c[nH]c2ccccc12  NAD-dependent protein deacetylase sirtuin-2 (Homo sapiens)          3.76
2  C[C@H](NC(=O)/C=C/c1ccccc1)C(=O)NCCc1c[nH]c2ccccc12  NAD-dependent protein deacetylase sirtuin-2 (Homo sapiens)          3.96
3  CC(C)(NC(=O)/C=C/c1ccc(F)cc1)C(=O)NCCc1c[nH]c2ccccc12  NAD-dependent protein deacetylase sirtuin-2 (Homo sapiens)          3.98
4  C[C@H](NC(=O)CCc1ccccc1)C(=O)NCCc1c[nH]c2ccc(OCc3ccccc3)cc12  NAD-dependent protein deacetylase sirtuin-2 (Homo sapiens)          4.07
5  CC(C)(NC(=O)/C=C/c1ccccc1)C(=O)NCCc1c[nH]c2ccccc12  NAD-dependent protein deacetylase sirtuin-2 (Homo sapiens)          4.00
